- ASSAYED SYSTEM: T1, recombinant extracellular domain (ECD) of the human prolactin receptor (PRLR) (human, UniProt P16471 25-234)
- T1 construct: also called PRLR ECD; Human PRLR; not shown: His tag
- T1 sequence: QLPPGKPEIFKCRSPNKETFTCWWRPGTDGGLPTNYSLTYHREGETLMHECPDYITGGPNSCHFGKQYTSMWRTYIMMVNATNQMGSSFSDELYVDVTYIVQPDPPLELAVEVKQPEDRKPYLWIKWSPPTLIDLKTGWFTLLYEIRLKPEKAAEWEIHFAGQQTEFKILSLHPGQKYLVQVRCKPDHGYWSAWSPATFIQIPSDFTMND
- METHOD NOTES: Biacore SPR, antibody captured on Protein A/G, kinetic titration of PRLR ECD, 1:1 Langmuir
PROPERTY NAME: pKd
Here pKd is given on a logarithmic scale as minus log10 of the concentration in mol/L.

Record he.06.275-3 (antibody, V domains shown, Human Engineered) VH: DVQLQESGPGLVKPSQTLSLTCTVTGYSITSDYAWNWIRQFPGKKLEWMGYISYSGSTSYNPSLKSRITISRDTSKNQFSLQLNSVTAADTATYFCARDYGYVFDYWGQGTTLTVSS VL: DVQITQSPSSLSASPGDRITLTCRASKNIYKYLAWYQEKPGKANKLLIYSGSTLHSGIPSRFSGSGSGTDFTLTISSLQPEDFAMYYCQQHNDYPYTFGQGTKLEIK , field pKd: 9.37

Record he.06.275-1 (antibody, V domains shown, Human Engineered) VH: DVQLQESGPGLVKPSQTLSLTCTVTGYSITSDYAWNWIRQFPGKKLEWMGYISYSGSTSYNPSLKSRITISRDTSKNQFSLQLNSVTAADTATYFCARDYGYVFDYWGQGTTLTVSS VL: DVQITQSPSSLSASPGDRITLTCRASKNIYKYLAWYQEKPGKTNNLLIYSGSTLHSGIPSRFSGSGSGTDFTLTISSLQPEDFAMYYCQQHNDYPYTFGQGTKLEIK , field pKd: 9.30

Continuing:
Record he.06.642-2 (antibody, V domains shown, Human Engineered) VH: EVQLVESGGGLVQPGGSLRLSCAVSGFTFSSYGMSWVRQAPGKGLEWVATVSSGGTYTYYPDSVKGRFTISRDNSKNTLYLQMNSLRAEDTAVYYCARHRGNYYATYYYAMDYWGQGTLVTVSS VL: DIVLTQSPDSLAVSLGERATINCKASKSVSTSGYTYMHWYQQKPGQPPKLLIYLASNRESGVPDRFSGSGSGTDFTLTISPVQAEDVATYYCQHSGELPPSFGQGTKLEIK , field pKd: 8.51

Data provenance is patent US20080292620A1.
